The reported numbers originate from PubChem BioAssay (Tox21).

target system: Progesterone receptor (Homo sapiens) (UniProt P06401)
Sequence (P06401 whole entry, looked up): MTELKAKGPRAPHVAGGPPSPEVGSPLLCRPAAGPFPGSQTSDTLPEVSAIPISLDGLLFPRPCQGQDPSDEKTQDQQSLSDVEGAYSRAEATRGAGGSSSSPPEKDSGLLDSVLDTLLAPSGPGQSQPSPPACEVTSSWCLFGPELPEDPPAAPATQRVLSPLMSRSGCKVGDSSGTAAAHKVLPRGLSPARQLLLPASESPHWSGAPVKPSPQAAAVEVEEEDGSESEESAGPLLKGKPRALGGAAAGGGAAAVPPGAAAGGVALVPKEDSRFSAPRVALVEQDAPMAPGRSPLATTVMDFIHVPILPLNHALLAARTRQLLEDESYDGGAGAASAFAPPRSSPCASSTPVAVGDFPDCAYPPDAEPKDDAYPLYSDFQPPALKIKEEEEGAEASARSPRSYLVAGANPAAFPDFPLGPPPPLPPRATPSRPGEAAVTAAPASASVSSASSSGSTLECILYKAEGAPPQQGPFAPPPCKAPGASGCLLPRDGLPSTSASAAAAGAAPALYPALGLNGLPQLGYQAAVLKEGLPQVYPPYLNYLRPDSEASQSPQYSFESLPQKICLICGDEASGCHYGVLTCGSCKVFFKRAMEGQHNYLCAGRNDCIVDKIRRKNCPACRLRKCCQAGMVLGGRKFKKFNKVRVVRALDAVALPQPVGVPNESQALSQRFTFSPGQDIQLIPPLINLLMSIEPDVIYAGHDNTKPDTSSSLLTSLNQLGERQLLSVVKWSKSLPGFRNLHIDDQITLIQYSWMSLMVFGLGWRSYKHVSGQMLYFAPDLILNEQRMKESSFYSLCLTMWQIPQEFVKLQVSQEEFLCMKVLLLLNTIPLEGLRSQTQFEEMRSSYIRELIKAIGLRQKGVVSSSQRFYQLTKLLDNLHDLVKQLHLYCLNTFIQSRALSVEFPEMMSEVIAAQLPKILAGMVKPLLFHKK
assay comment: qHTS assay to identify small molecule antagonists of the progesterone receptor (PR) signaling pathway (AID 1346795)
test settings: PR-UAS-bla HEK293T, beta-lactamase FRET ratio, 16 h; series mostly up to 92.4 µM
Results filed as inconclusive are left out. Active and inactive are the calls of the source. Calls come from the whole dose curve; as a rule, active = well fitted inhibition curve with a large enough effect in the signal ratio in the repeat runs (not every such curve was filed as active); inconclusive = weak or mixed curves; inactive = flat fitted curve, though single readings scatter; the % refers to the signal ratio.
Outcomes: active, inactive

compound: CN(C)Cc1ccccc1O
category: inactive
//
compound: O[C@@H]([C@H](O)[C@H](O)CBr)[C@H](O)CBr
category: inactive
//
compound: CCCCC(CC)CN1CN(CC(CC)CCCC)CC(C)(N)C1 (stereo not given)
category: inactive
//
compound: O=C(/C=C/c1ccc(O)c(O)c1)O[C@@H](C(=O)O)[C@@H](OC(=O)/C=C/c1ccc(O)c(O)c1)C(=O)O
category: inactive
//
compound: COCCOc1cc2cc(C(=O)NC3CCN(C(C)C)CC3)n(CC(=O)Nc3ccc(Cl)cn3)c2cn1
category: inactive
//
compound: CCN(CC)c1ccc2c(-c3ccc(S(=O)(=O)O)cc3S(=O)(=O)[O-])c3ccc(=[N+](CC)CC)cc-3oc2c1
category: inactive
//
compound: [Cl][Pt-2]([Cl])([Cl])[Cl]
category: inactive
//
compound: CC(C(=O)O)c1ccc2c(c1)[nH]c1ccc(Cl)cc12 (stereo not given)
category: inactive
//
compound: O=C(O)c1cccc(C(F)(F)F)c1
category: inactive
//
compound: O=C(O)CCN(C1(C(=O)NO)CCCC1)S(=O)(=O)c1ccc(Oc2ccc(F)cc2)cc1
category: inactive
//
compound: CC(=O)OCC=C(C)C
category: inactive
//
compound: CCCCCCCC
category: inactive
//
compound: CCCCC/C=C\C/C=C\CCCCCCCC(=O)O
category: inactive
//
compound: Clc1sc(Cl)c(Cl)c1Cl
category: inactive
//
compound: CC(CCc1ccccc1)NCC(O)c1ccc(O)c(C(N)=O)c1 (stereo not given)
category: inactive
//
compound: Cc1ccc(C(C)C)cc2c(C)ccc1-2
category: inactive
//
compound: Cc1ccc(C(=O)O)cc1
category: inactive
//
compound: Cc1cc(=O)oc2cc(O)cc(O)c12
category: inactive
//
compound: CCCCCCCC/C=C\CCCCCCCCN
category: inactive
//
compound: CNc1ccc([N+](=O)[O-])cc1
category: active
//
compound: CCC(C)[O-].CCC(C)[O-].CCOC(=O)/C=C(/C)[O-].[Al+3]
category: inactive
//
compound: CN(C)c1ccc(C(=C2C=CC(=[N+](C)C)C=C2)c2ccc(N(C)C)cc2)cc1
category: active
//
compound: C/C=C/C=C/COC(=O)C(C)C
category: inactive
//
compound: O=C(O)c1ccc2cc(C(=O)O)ccc2c1
category: inactive
//
compound: COc1ccc2cc1Oc1ccc(cc1)C[C@H]1c3c(cc4c(c3Oc3cc5c(cc3OC)CCN(C)[C@@H]5C2)OCO4)CCN1C
category: inactive
